Source of measurements: patent US10772928B2

Target: T1, nSR100 (Mus musculus, UniProt Q8BKA3)
T1 construct: host or cells: mouse N2A cells
T1 sequence (Q8BKA3 1-608): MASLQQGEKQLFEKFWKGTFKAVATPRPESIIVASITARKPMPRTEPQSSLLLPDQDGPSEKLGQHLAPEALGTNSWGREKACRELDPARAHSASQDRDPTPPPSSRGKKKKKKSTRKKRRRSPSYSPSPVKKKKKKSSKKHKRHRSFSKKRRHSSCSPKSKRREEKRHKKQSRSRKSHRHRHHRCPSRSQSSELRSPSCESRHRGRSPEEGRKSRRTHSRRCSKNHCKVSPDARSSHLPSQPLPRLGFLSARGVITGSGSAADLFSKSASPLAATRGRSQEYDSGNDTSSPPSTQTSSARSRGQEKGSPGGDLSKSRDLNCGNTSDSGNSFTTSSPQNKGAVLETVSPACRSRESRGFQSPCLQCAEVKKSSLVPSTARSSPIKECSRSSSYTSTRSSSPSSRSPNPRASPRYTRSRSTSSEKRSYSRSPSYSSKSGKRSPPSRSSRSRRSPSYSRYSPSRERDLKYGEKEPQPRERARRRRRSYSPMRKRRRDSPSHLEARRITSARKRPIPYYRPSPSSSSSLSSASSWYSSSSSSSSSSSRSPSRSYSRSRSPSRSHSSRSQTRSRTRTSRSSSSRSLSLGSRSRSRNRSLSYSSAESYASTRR
Experiment: AP-MS nSR100 interaction partners from mouse N2A cells (Table 5)
Assay type: binding
Details: bait Srrm4
measured_parameter: MaxP (maximal SAINT score)

{"molecule": "Necap1 (protein, UniProt Q9CR95 1-275, looked up) Adaptin ear-binding …: MAAELEYESVLCVKPDVSVYRIPPRASNRGYRASDWKLDQPDWTGRLRITSKGKIAYIKLEDKVSGELFAQAPVEQYPGIAVETVTDSSRYFVIRIQDGTGRSAFIGIGFTDRGDAFDFNVSLQDHFKWVKQETEISKESQEMDNRPKLDLGFKEGQTIKLSIGNITAKKGGASKPRASGTGGLSLLPPPPGGKVTIPPPSSSVAISNHVTPPPIPKSNHGGNDSDILLDLDSPAPVSTSAPAPVSTSNDLWGDFSTASSSVPNQAPQPSNWVQF", "recorded_result": 1}
